- Target system: 5-lipoxygenase (Homo sapiens, UniProt P09917)
- Construct: endogenous in cells
- Sequence (P09917 whole entry): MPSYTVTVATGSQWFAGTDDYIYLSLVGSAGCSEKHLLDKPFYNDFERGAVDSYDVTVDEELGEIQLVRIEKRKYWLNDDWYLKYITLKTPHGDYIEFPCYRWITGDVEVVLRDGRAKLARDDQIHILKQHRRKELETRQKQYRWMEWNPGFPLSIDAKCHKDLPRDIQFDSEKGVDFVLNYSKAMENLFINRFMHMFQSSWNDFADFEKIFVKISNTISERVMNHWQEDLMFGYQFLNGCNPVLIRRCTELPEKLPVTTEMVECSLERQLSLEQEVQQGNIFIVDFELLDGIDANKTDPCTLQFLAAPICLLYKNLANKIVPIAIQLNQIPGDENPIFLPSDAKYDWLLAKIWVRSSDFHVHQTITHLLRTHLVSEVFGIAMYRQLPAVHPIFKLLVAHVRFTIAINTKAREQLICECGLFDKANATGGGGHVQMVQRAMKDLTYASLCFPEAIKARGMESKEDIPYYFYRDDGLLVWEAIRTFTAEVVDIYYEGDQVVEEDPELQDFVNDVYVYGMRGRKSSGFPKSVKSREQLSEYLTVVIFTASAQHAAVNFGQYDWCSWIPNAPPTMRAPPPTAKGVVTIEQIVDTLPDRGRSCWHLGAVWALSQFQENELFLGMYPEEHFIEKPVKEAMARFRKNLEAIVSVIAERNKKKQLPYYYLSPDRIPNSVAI
- Assay notes: 5-Lipoxygenase Assay Using Isolated Human Leukocytes (5LOA2), 5-HETE formation
- Stated conditions: 50% inhibition of 5-HETE formation in human leukocytes; 20 μM arachidonic acid, 10 μM A23187; read-out: 5-LOA IC50
pIC50: −log10 of the molar value.
Values of pIC50 greater than or equal to 5 map to True; values below map to False.

Molecule: ON=C(/C=C/c1ccc(O)c(O)c1)CCCCc1ccccc1 [Example 19]
Assigned category: True
//
Molecule: COc1cc(/C=C/C(CCCCc2ccccc2)=NO)ccc1O [Example 17]
Assigned category: True
//
Molecule: O=C(/C=C/c1ccc(O)c(CO)c1)CCc1ccccc1 [Example 10]
Assigned category: False
//
Molecule: COc1cc(C=CC(COc2ccccc2)=NO)ccc1O [Example 24]
Assigned category: True

----------
Quick reference for IC50 among some molecules
- Target system: Cyclooxygenase (Bos taurus)
- Sequence (O62664 25-600): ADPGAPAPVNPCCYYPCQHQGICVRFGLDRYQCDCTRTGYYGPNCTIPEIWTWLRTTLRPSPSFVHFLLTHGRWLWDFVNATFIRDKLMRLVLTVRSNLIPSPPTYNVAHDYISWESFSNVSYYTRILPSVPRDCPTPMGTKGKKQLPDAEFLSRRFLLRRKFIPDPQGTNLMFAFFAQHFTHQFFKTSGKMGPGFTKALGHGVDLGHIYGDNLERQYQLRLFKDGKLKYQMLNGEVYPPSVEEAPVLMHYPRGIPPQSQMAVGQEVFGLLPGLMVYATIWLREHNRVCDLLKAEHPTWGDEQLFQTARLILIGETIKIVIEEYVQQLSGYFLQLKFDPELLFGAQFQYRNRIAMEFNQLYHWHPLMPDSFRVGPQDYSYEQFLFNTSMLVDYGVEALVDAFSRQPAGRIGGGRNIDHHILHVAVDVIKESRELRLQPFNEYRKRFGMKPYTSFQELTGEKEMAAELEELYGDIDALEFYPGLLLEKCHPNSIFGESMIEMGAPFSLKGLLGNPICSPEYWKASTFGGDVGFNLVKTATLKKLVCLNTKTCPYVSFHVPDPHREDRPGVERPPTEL

Molecule: O=C(/C=C/c1ccc(O)c([N+](=O)[O-])c1)CCc1ccccc1
IC50: 135 µM
//
Molecule: COc1cc(C=CC(COc2ccccc2)=NO)ccc1O
IC50: 57 µM
//
Molecule: Nc1cc(/C=C/C(CCc2ccccc2)=NO)ccc1O (single isomer, unassigned) [23 (Isomer B)]
IC50: 90 µM
//
Molecule: COc1cc(C=CC(=O)CCc2ccc(O)c(OC)c2)ccc1O
IC50: 84 µM
//
Molecule: Nc1cc(/C=C/C(CCc2ccccc2)=NO)ccc1O (single isomer, unassigned) [23 (Isomer A)]
IC50: 98 µM

----------
- Target system: 5-lipoxygenase (Homo sapiens)
- Construct: endogenous in cells
- Assay notes: 5-Lipoxygenase Assay Using Isolated Human Leukocytes (5LOA2), 5-HETE formation
- Stated conditions: 50% inhibition of 5-HETE formation in human leukocytes; 20 μM arachidonic acid, 10 μM A23187; read-out: 5-LOA IC50
pIC50: −log10 of the molar value.
Quick reference: pIC50 of the listed items.
Quantity: pIC50

Structure as smiles: O=C(/C=C/c1ccc(O)c(O)c1)CCCc1ccccc1
Number: 5.70
//
Structure as smiles: COc1cc(/C=C/C(=O)CCc2ccccc2)ccc1O
Number: 4.82
//
Structure as smiles: COc1ccc(/C=C/C(CCCCc2ccccc2)=NO)cc1O
Number: 5.23
//
Structure as smiles: Nc1cc(/C=C/C(=O)CCc2ccccc2)ccc1O
Number: 7.10
//
Structure as smiles: O=C(/C=C/c1ccc(O)c(Cl)c1)CCc1ccccc1
Number: 4.66
//
Structure as smiles: COc1cc(C=CC(CCCOc2ccccc2)=NO)ccc1O
Number: 6.15
//
Structure as smiles: OCc1cc(/C=C/C(CCc2ccccc2)=NO)ccc1O
Number: 4.46
//
Structure as smiles: COc1cc(C=CC(=O)COc2ccccc2)ccc1O
Number: 4.70
//
Structure as smiles: CON=C(C=Cc1ccc(O)c(OC)c1)CCCCc1ccccc1
Number: 5.52
//
Structure as smiles: COc1cc(/C=C/C(=O)CCCc2ccccc2)ccc1O
Number: 4.74

----------
- Target system: 5-lipoxygenase (Homo sapiens, UniProt P09917)
- Construct: endogenous in cells; host or cells: leukocytes isolated from fresh human blood
- Assay notes: 5-Lipoxygenase Assay Using Isolated Human Leukocytes (5LOA2), 5-HETE formation
- Format: cell-based
- Stated conditions: read-out: 5-LOA % inhibition at 20 μM
- Experimental: 5-Lipoxygenase Assay Using Isolated Human Leukocytes (5LOA2) The formation of 5-HETE in human leukocytes is considered a measure of 5-lipoxygenase activity. The protocol is described in the following. […] A portion of the ethanol solution is injected into the HPLC system for 5-HETE quantitation. The HPLC system consists of Hewlett-Packard 1040A UV spectrophotometry system with an HP85 computer. […] Peaks are measured with a Hewlett Packard 3390A integrator. […]
Measured inhibition at 20 µM by item
Quantity: inhibition at 20 µM (%)

Compound: O=C(/C=C/c1ccc(O)c([N+](=O)[O-])c1)CCc1ccccc1 [Example 12]
Quantity: inhibition at 20 µM
Number: 22
//
Compound: O=C(/C=C/c1ccc(O)c(CO)c1)CCCCc1ccccc1 [Example 4]
Quantity: inhibition at 20 µM
Number: 17
//
Compound: O=C(/C=C/c1ccc(O)cc1)CCCCc1ccccc1 [Example 3]
Quantity: inhibition at 20 µM
Number: 30
//
Compound: O=C(/C=C/c1ccc(C(=O)O)cc1)CCCCc1ccccc1 [Example 6]
Quantity: inhibition at 20 µM
Number: 19
